system under test: T1, h-FXIIa (human, UniProt P00748 20-615)
T1 construct: also called factor XIIa
T1 sequence (looked up): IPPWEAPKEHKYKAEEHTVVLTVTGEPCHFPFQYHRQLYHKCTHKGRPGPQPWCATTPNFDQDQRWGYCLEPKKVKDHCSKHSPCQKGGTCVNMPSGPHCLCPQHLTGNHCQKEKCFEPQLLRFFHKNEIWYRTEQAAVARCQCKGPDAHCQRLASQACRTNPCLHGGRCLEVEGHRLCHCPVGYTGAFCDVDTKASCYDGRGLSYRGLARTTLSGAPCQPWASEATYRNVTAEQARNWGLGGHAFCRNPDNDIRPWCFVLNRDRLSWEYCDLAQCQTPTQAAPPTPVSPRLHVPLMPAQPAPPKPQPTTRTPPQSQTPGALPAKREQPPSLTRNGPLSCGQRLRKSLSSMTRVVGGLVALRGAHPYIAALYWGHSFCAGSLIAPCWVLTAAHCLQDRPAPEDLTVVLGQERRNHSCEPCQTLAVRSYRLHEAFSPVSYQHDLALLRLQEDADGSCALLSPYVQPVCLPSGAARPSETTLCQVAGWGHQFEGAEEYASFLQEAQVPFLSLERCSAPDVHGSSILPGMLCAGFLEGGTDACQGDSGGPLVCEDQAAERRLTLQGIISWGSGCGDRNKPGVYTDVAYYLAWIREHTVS
assay protocol: S2302 hydrolysis by h-FXIIa (5.01 nM); inhibitor kept at -80° C.
Where no end group is shown, it is not given here.
readout name: pKi
Here pKi is given on a logarithmic scale as minus log10 of the concentration in mol/L.

Here are 4 binders together with their reported answers.
HEERVCPRILMKCKKDSDCLAECVCLEHGYCG (Synthetic congener; also called HEE-TICA1) [TICA 3]
5.51
HEERVCPKILMECKKDSDCLAECICLEHGYCG (Synthetic congener; also called HEE-TICA4) [TICA 5]
3.77
RVCPRILMECKKDSDCLAECVCLEHGYCG (disulfide (positions not given here), Synthetic, folded peptide) [TICA 2]
6.96
RVCPKILMECKKDSDCLAECICLEHGYCG (disulfide (positions not given here), Synthetic congener) [TICA 4]
5.85

Turning now to a further binder:
Form field: reported pKi of Corn trypsin inhibitor (other, UniProt P01088 29-138, looked up, also called CTI) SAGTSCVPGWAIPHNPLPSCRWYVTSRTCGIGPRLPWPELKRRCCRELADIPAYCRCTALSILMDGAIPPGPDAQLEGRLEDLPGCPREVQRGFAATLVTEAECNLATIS
8.44
